- Test system: LNCaP human prostate cancer cells
- Run Description: LNCaP xenograft efficacy study (T/C tumor area)
- Type: in vivo, SCID mice
- Condition Info: Example V; day 27 after start of therapy; once 750 kBq/kg
Provide the reported T/Carea of each item.
Numbers only.

Previously resolved entries follow.
Cc1cc2c(c(=O)n1CC(=O)O)[O][227Th]13[O]c4c(cc(C)n(CC(=O)O)c4=O)C(=O)NCCN(CCCN(CCNC(=O)c4cc(C)n(CC(=O)O)c(=O)c4[O]1)CCNC(=O)c1cc(C)n(CC(=O)NCc4ccc(C(=O)N[C@@H](Cc5ccc6ccccc6n5)C(=O)NCCCC[C@H](NC(=O)N[C@@H](CCC(=O)O)C(=O)O)C(=O)O)nc4)c(=O)c1[O]3)CCNC2=O [34-C monomer-227Th] | 0.37
O=C([O-])CN1CCN(CC(=O)[O-])CCN(CC(=O)NCC2CCC(C(=O)NC(Cc3ccc4ccccc4c3)C(=O)NCCCCC(NC(=O)NC(CCC(=O)O)C(=O)O)C(=O)O)CC2)CCN(CC(=O)[O-])CC1.[227Th+4] (stereo not drawn) [Example 1-B-227Th] | 0.29

Reported T/Carea for O=C([O-])CN1CCN(CC(=O)[O-])CCN(CC(=O)NCC2CCC(C(=O)NC(Cc3ccc4ccccc4c3)C(=O)NCCCCC(NC(=O)NC(CCC(=O)O)C(=O)O)C(=O)O)CC2)CCN(CC(=O)[O-])CC1.[227Th+4] [Example 1-B-D-227Th] was 0.91
